Molecular target: MBP-RAMP1 ECD-(GSA)3-CLR ECD-H6 tethered fusion protein (UniProt O60894 27-118)
Ends that are not written are not given here.
experimental-readout: pIC50
To interpret pIC50, take it as minus log10 of a concentration measured in moles per litre.

Memo: FVPTDVGPFAY-NH2 [CGRPmut [F37Y]] , reported pIC50: 6.24

Cited source for all entries: paper PMC4504005
